# TEST: Inhibition of HIV integrase by MWPA-Mg enzymatic assay
# Parameters: species or system Human immunodeficiency virus
Reported IC50 values follow for various compounds
State just the number; it will be interpreted in nM.

Ask | Fill blank: measured IC50 of the compound O=C1NCC(C(=O)c2ccc(Cc3ccc(F)cc3)o2)=C1O is ____.
Reply | 100

Ask | Fill blank: measured IC50 of the compound O=C(O)/C(O)=C/c1cc(OCc2ccc(F)cc2)ccn1 is ____.
Reply | 93

----------
# TEST: Inhibition of HIV integrase by MWPA-Mg enzymatic assay
# Set-up: species or system Human immunodeficiency virus
Classify: fulfilled when IC50 is strictly less than 80 nM; not fulfilled when IC50 is not.

{"SMILES RECORD": "CN1CC(c2cc(OCc3ccc(F)cc3)ncn2)=C(O)C1=O", "CATEGORY": "fulfilled"}
{"SMILES RECORD": "COc1ccc(CN2CC(c3cc(OCc4ccc(F)cc4)ncn3)=C(O)C2=O)cc1", "CATEGORY": "not fulfilled"}
{"SMILES RECORD": "COCCN1CC(C(=O)c2ccc(Cc3ccc(F)cc3)o2)=C(O)C1=O", "CATEGORY": "not fulfilled"}
{"SMILES RECORD": "O=C(C1=C(O)C(=O)N(C2CCCC2)C1)c1ccc(Cc2ccc(F)cc2)o1", "CATEGORY": "not fulfilled"}

Alright, here's another compound for you.
Ask | Item O=C(C1=C(O)C(=O)N(CCO)C1)c1ccc(Cc2ccc(F)cc2)o1 : IC50 beneath 80 nM, strictly?
Reply | fulfilled

----------
# TEST: Inhibition of HIV integrase by MWPA-Mg enzymatic assay
# Set-up: species or system Human immunodeficiency virus
Reported pIC50 values follow for various compounds
In simple prose, pIC50 is minus the logarithm base ten of a concentration in moles per litre.

Guide cases for pIC50, answers given:
{"SMILES RECORD": "CC(C)N1CC(c2cc(OCc3ccc(F)cc3)ncn2)=C(O)C1=O", "MEASUREMENT TYPE": "pIC50", "OBSERVED VALUE": 7.09}
{"SMILES RECORD": "CN1CC(C(=O)c2ccc(Cc3ccc(F)cc3)o2)=C(O)C1=O", "MEASUREMENT TYPE": "pIC50", "OBSERVED VALUE": 7.09}

Consider now this further compound.
Ask | Fill blank: measured pIC50 of the compound CN1CC(c2ccc(Oc3ccc(F)cc3)cn2)=C(O)C1=O is ____.
Reply | 7.10
